Here, each record is paired with measured %Inh data.
Tested on: SRMS
TEST SETTINGS: concentration: 1 μM, replicates: in singlicate; n = 1;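 further: KINOMEscan kinase panel screen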
READOUT: %Inh (%)

[[record]]
mol_smiles = "Cc1cc(-c2c(-c3ccc(F)cc3)ncn2CCCN2CCOCC2)nc(N)n1"
readout = "%Inh"
recorded_value = 26

[[record]]
mol_smiles = "Cn1cc(-c2ccc3c(c2)CCN3C(=O)Cc2cc(F)cc(C(F)(F)F)c2)c2c(N)ncnc21"
readout = "%Inh"
recorded_value = 0

[[record]]
mol_smiles = "Cl.N#CCc1ccc(Nc2nccc(Nc3ccc(Oc4ccccc4)cc3)n2)cc1"
readout = "%Inh"
recorded_value = 82

[[record]]
mol_smiles = "COc1cccc(CC(=O)N2CCc3cc(-c4cn(C)c5ncnc(N)c45)ccc32)c1"
readout = "%Inh"
recorded_value = 4


* * *

Test system: SBK1
TEST SETTINGS: concentration: 1 μM, replicates: in singlicate; n = 1
Here, each record is paired with measured %Inh data.
READOUT: %Inh (%)

[[record]]
compound = "N#Cc1cnc2cc(-c3cnc(CNCCN4CCOCC4)s3)ccc2c1Nc1ccc(Oc2ccccc2)cc1"
unit_string = "%"
recorded_value = 1

[[record]]
compound = "Cc1ccc(NC(=O)c2ccc(Cl)c(Cl)c2)cc1-c1ccc(C(=O)Nc2ccncc2)cc1"
unit_string = "%"
recorded_value = 15

[[record]]
compound = "Nc1ncc(-c2cn[nH]c2)c2scc(-c3ccc4c(c3)CCN4C(=O)Cc3ccccc3)c12"
unit_string = "%"
recorded_value = 0

[[record]]
compound = "CN(c1ccc(F)c(NC(=O)c2cccc(OC(C)(C)C#N)c2Cl)c1)c1ccc2nc(NC(=O)C3CC3)sc2n1"
unit_string = "%"
recorded_value = 18

[[record]]
compound = "COc1cccc(CC(=O)N2CCc3cc(-c4cn(C)c5ncnc(N)c45)ccc32)c1"
unit_string = "%"
recorded_value = 20

[[record]]
compound = "Cc1ccc(-c2ccc3occ(-c4ccc(S(C)=O)cc4)c3c2)nn1 (centres unmarked)"
unit_string = "%"
recorded_value = 0

[[record]]
compound = "CC(C)c1nc(-c2ccc(F)c(NS(=O)(=O)c3c(F)cccc3F)c2)c(-c2ccnc(Nc3ccc(N4CCOCC4)nc3)n2)s1"
unit_string = "%"
recorded_value = 25

[[record]]
compound = "CC(=O)Nc1cn2nc(Oc3cccc(NC(=O)c4cccc(C(F)(F)F)c4)c3)ccc2n1"
unit_string = "%"
recorded_value = 0


* * *

System: LTK
TEST SETTINGS: concentration: 1 μM, replicates: in singlicate; n = 1
Here, each record is paired with measured %Inh data.
READOUT: %Inh (%)

[[record]]
mol_smiles = "Cc1ccc(NC(=O)c2ccnc(N3CCCCC3)c2)cc1-c1ccc(C(=O)NCC2CC2)cc1"
recorded_value = 15

[[record]]
mol_smiles = "COc1ccc(NC(=O)c2ccoc2)cc1-c1ccc(C(=O)NCC2CC2)cc1"
recorded_value = 16

[[record]]
mol_smiles = "COc1cccc(NC(=O)NCCNc2ccnc(Nc3ccc(F)cc3)n2)c1"
recorded_value = 0

[[record]]
mol_smiles = "COC(=O)Nc1nc2cc(Oc3ccc(NC(=O)Nc4cccc(SC)c4)cc3)ccc2[nH]1.Cl"
recorded_value = 0

[[record]]
mol_smiles = "CSc1ccc(NC2=C(c3ccc(Cl)cc3)C(=O)NC2=O)cc1"
recorded_value = 27

[[record]]
mol_smiles = "N#Cc1cnc2cc(-c3cnc(CNCCN4CCOCC4)s3)ccc2c1Nc1ccc(Oc2ccccc2)cc1"
recorded_value = 0

[[record]]
mol_smiles = "N#CC1(c2cccc(C(=O)Nc3cccc(Oc4ccc5nc(NC(=O)C6CC6)sc5n4)c3)c2)CC1"
recorded_value = 0

[[record]]
mol_smiles = "O=C1NC(=O)C(c2ccccc2Cl)=C1Nc1cccc(Cl)c1"
recorded_value = 0


* * *

System: PHKG1
TEST SETTINGS: concentration: 1 μM, replicates: in singlicate; n = 1
READOUT: %Inh (%)

[[record]]
molecule = "CC(C)c1nc(-c2ccc(F)c(NS(=O)(=O)c3c(F)cccc3F)c2)c(-c2ccnc(Nc3ccc(N4CCOCC4)nc3)n2)s1"
readout = "%Inh"
recorded_value = 0

[[record]]
molecule = "CN(c1ccc(NC(=O)N2CCN(CCCN3CCOCC3)CC2)cc1)c1ccnc(Nc2ccc(CS(C)(=O)=O)cc2)n1.Cl"
readout = "%Inh"
recorded_value = 40

[[record]]
molecule = "CN(C)CCNS(=O)(=O)c1ccc(-c2ccnc3[nH]ccc23)cc1"
readout = "%Inh"
recorded_value = 25

[[record]]
molecule = "Cc1ccc(O)cc1Nc1ccnc2cc(-c3ccc(CN4CCCCC4)o3)ccc12"
readout = "%Inh"
recorded_value = 9

[[record]]
molecule = "Cl.N#CCc1ccc(Nc2nccc(Nc3ccc(Oc4ccccc4)cc3)n2)cc1"
readout = "%Inh"
recorded_value = 0

[[record]]
molecule = "CCn1cnc2c(NCc3ccccc3)ncnc21"
readout = "%Inh"
recorded_value = 0

[[record]]
molecule = "N#Cc1cnc2cc(-c3cnc(CNCCN4CCOCC4)s3)ccc2c1Nc1ccc(Oc2ccccc2)cc1"
readout = "%Inh"
recorded_value = 0

[[record]]
molecule = "Cc1ccc(NC(=O)c2ccnc(N3CCCCC3)c2)cc1-c1ccc(C(=O)NCC2CC2)cc1"
readout = "%Inh"
recorded_value = 0

[[record]]
molecule = "N#CC1(c2cccc(C(=O)Nc3cccc(Oc4ccc5nc(NC(=O)C6CC6)sc5n4)c3)c2)CC1"
readout = "%Inh"
recorded_value = 0

[[record]]
molecule = "COc1cccc(-c2nc(-c3ccccc3)[nH]c2-c2ccncc2)c1"
readout = "%Inh"
recorded_value = 0

[[record]]
molecule = "COc1ccc(C2=C(Nc3cccc(O)c3)C(=O)NC2=O)cc1"
readout = "%Inh"
recorded_value = 0

[[record]]
molecule = "Cn1cc(-c2cnc(N)c3c(-c4ccc5c(c4)CCN5C(=O)Cc4ccccc4)csc23)cn1"
readout = "%Inh"
recorded_value = 6

[[record]]
molecule = "Cl.O=C(Nc1ccc(Oc2ccc3[nH]c(NC(=O)c4ccco4)nc3c2)cc1)Nc1cc(C(F)(F)F)ccc1F"
readout = "%Inh"
recorded_value = 0

[[record]]
molecule = "Cn1cc(-c2ccc3c(c2)CCN3C(=O)Cc2cc(F)cc(F)c2F)c2c(N)ncnc21"
readout = "%Inh"
recorded_value = 0

[[record]]
molecule = "COc1cccc(NC(=O)NCCNc2ccnc(Nc3ccc(F)cc3)n2)c1"
readout = "%Inh"
recorded_value = 0

[[record]]
molecule = "O=C(Nc1n[nH]c2nc(-c3ccccc3)ccc12)C1CC1"
readout = "%Inh"
recorded_value = 12

[[record]]
molecule = "NCCC(NC(=O)c1cc(Br)c(-c2ccnc3[nH]ccc23)s1)c1ccccc1.O=C(O)C(F)(F)F.O=C(O)C(F)(F)F (centres unmarked)"
readout = "%Inh"
recorded_value = 24


* * *

Here, each record is paired with measured %Inh data.
System: GSK3A
TEST SETTINGS: concentration: 1 μM, replicates: in singlicate; n = 1
READOUT: %Inh (%)

[[record]]
compound = "N#Cc1cnc2cc(-c3cnc(CNCCN4CCOCC4)s3)ccc2c1Nc1ccc(Oc2ccccc2)cc1 [GW664114]"
readout = "%Inh"
unit_string = "%"
recorded_value = 6

[[record]]
compound = "CN1CCN(Cc2ccc(NC(=O)Nc3ccc(N(C)c4ccnc(Nc5ccc(CS(C)(=O)=O)cc5)n4)cc3)cc2)CC1.Cl [GW827654]"
readout = "%Inh"
unit_string = "%"
recorded_value = 4

[[record]]
compound = "Fc1cc(Cl)ccc1Nc1ccnc2cc(-c3ccc(CN4CCOCC4)o3)ccc12 [GW560109]"
readout = "%Inh"
unit_string = "%"
recorded_value = 1

[[record]]
compound = "COC(=O)Nc1nc2cc(Oc3ccc(NC(=O)Nc4cccc(SC)c4)cc3)ccc2[nH]1.Cl [GW697999]"
readout = "%Inh"
unit_string = "%"
recorded_value = 0

[[record]]
compound = "Cc1nn2c(=O)cc(N3CCO[C@H](C)C3)nc2n1Cc1cccc(Cl)c1Cl [GSK2373693]"
readout = "%Inh"
unit_string = "%"
recorded_value = 0

[[record]]
compound = "CCn1c(-c2nonc2N)nc2c(-c3ccccc3)ncc(OCCCN)c21.O=C(O)C(F)(F)F.O=C(O)C(F)(F)F [GSK260205]"
readout = "%Inh"
unit_string = "%"
recorded_value = 15

[[record]]
compound = "O=C(Nc1n[nH]c2nc(-c3ccccc3)ccc12)C1CC1 [SB-708999]"
readout = "%Inh"
unit_string = "%"
recorded_value = 77

[[record]]
compound = "Cl.Cl.NC(CNC(=O)c1cc(Br)c(-c2ccnc3[nH]ccc23)s1)c1ccccc1 (centres unmarked) [GSK1322949]"
readout = "%Inh"
unit_string = "%"
recorded_value = 0


* * *

Here, each record is paired with measured %Inh data.
System: TIE1
TEST SETTINGS: concentration: 1 μM, replicates: in singlicate; n = 1
READOUT: %Inh (%)

[[record]]
molecule = "COc1ccc(C2=C(Nc3cccc(O)c3)C(=O)NC2=O)cc1"
recorded_value = 0

[[record]]
molecule = "CC(C)(C)c1ccc(C(=O)Nc2cn3cc(-n4ccnc4)ccc3n2)cc1"
recorded_value = 3

[[record]]
molecule = "CCn1cnc2c(NCc3ccccc3)ncnc21"
recorded_value = 0

[[record]]
molecule = "Cc1cc(-c2ccnc(Nc3cccc(C#N)c3)n2)cc(C)c1O"
recorded_value = 74

[[record]]
molecule = "CCn1c(-c2nonc2N)nc2c(-c3ccccc3)ncc(OCCCN)c21.O=C(O)C(F)(F)F.O=C(O)C(F)(F)F"
recorded_value = 70

[[record]]
molecule = "Cc1ccc(NC(=O)c2cccc(N3CCCCC3)c2)cc1-c1ccc(C(=O)NCC2CC2)cc1"
recorded_value = 1

[[record]]
molecule = "CN(c1ccc(NC(=O)N2CCN(CCCN3CCOCC3)CC2)cc1)c1ccnc(Nc2ccc(CS(C)(=O)=O)cc2)n1.Cl"
recorded_value = 0

[[record]]
molecule = "COc1ccc(NC(=O)c2ccoc2)cc1-c1ccc(C(=O)NCC2CC2)cc1"
recorded_value = 0

[[record]]
molecule = "COc1cc(Nc2nccc(N3CCC(NC(=O)Nc4ccc5c(c4)OCO5)C3)n2)cc(OC)c1OC (stereo not shown)"
recorded_value = 42

[[record]]
molecule = "COc1cccc(C2=C(Nc3cccc(O)c3)C(=O)NC2=O)c1"
recorded_value = 0

[[record]]
molecule = "c1ccc(Oc2ccc(Nc3ccnc4cc(-c5ccc(CN6CCCCC6)o5)ccc34)cc2)nc1"
recorded_value = 23

[[record]]
molecule = "CC(=O)Nc1cn2nc(Oc3cccc(NC(=O)c4cccc(C(F)(F)F)c4)c3)ccc2n1"
recorded_value = 81

[[record]]
molecule = "Cl.O=C(Nc1ccc(Oc2ccc3[nH]c(NC(=O)c4ccco4)nc3c2)cc1)Nc1cc(C(F)(F)F)ccc1F"
recorded_value = 100

[[record]]
molecule = "O=C1NC(=O)C(c2ccccc2Cl)=C1Nc1cccc(Cl)c1"
recorded_value = 7

[[record]]
molecule = "CN(c1ccc2c(c1)nc(NCc1ccccc1)n2C)c1ccnc(Nc2ccc(CS(C)(=O)=O)cc2)n1.Cl"
recorded_value = 88

[[record]]
molecule = "Cc1ccc(NC(=O)c2ccnc(N3CCCCC3)c2)cc1-c1ccc(C(=O)NCC2CC2)cc1"
recorded_value = 0

[[record]]
molecule = "CCOc1nccc(-c2c(-c3ccc(F)cc3)ncn2C2CCNCC2)n1"
recorded_value = 23

[[record]]
molecule = "CNc1nccc(-c2ccc3c(N)n[nH]c3c2)n1"
recorded_value = 15

[[record]]
molecule = "CC(C)c1nc(-c2ccc(F)c(NS(=O)(=O)c3c(F)cccc3F)c2)c(-c2ccnc(Nc3ccc(N4CCOCC4)nc3)n2)s1"
recorded_value = 87

[[record]]
molecule = "O=C(O)C(F)(F)F.O=c1[nH]ccc2nc(N[C@@H]3CCNC3)nc(Nc3cc(Cl)cc(Cl)c3)c12"
recorded_value = 0

[[record]]
molecule = "CN(C)CCOc1ccc(-c2cc(-c3ccc(Cl)c(O)c3)c(-c3ccncc3)[nH]2)cc1.Cl.Cl"
recorded_value = 4

[[record]]
molecule = "Cl.N#CCc1ccc(Nc2nccc(Nc3ccc(Oc4ccccc4)cc3)n2)cc1"
recorded_value = 2

[[record]]
molecule = "COc1cccc(CC(=O)N2CCc3cc(-c4cn(C)c5ncnc(N)c45)ccc32)c1"
recorded_value = 82

[[record]]
molecule = "COc1cc(Nc2nccc(N3CCC(NS(=O)(=O)c4ccc(NC(C)=O)cc4)CC3)n2)cc(OC)c1OC"
recorded_value = 63

[[record]]
molecule = "O=C(Nc1n[nH]c2cc(-c3cccs3)ccc12)C1CC1"
recorded_value = 0

[[record]]
molecule = "O=C(Nc1n[nH]c2nc(-c3cccc(O)c3)ccc12)C1CC1"
recorded_value = 0

[[record]]
molecule = "COc1cc(Nc2ccnc3cc(-c4ccncc4)ccc23)cc(OC)c1OC.Cl"
recorded_value = 19

[[record]]
molecule = "Cn1cc(-c2cnc(N)c3c(-c4ccc5c(c4)CCN5C(=O)Cc4ccccc4)csc23)cn1"
recorded_value = 84

[[record]]
molecule = "Cc1ccc(O)cc1Nc1ccnc2ccc(C(C)(C)C)cc12"
recorded_value = 38

[[record]]
molecule = "Cc1ccc(C)c(NC(=O)Nc2ccc(C)c(-c3ccc(C(=O)Nc4ccncc4)cc3)c2)c1"
recorded_value = 0

[[record]]
molecule = "CN(c1ccc(F)c(NC(=O)c2cccc(OC(C)(C)C#N)c2Cl)c1)c1ccc2nc(NC(=O)C3CC3)sc2n1"
recorded_value = 67

[[record]]
molecule = "Cc1ccc(-c2ccc3occ(-c4ccc(S(C)=O)cc4)c3c2)nn1 (stereo not shown)"
recorded_value = 0

[[record]]
molecule = "O=C(Nc1n[nH]c2nc(-c3ccccc3)ccc12)C1CC1"
recorded_value = 15

[[record]]
molecule = "NCCC(NC(=O)c1cc(Br)c(-c2ccnc3[nH]ccc23)s1)c1ccccc1.O=C(O)C(F)(F)F.O=C(O)C(F)(F)F (stereo not shown)"
recorded_value = 73


Measured values drawn from paper PMC5540273 for this set.
